Where these numbers come from: ChEMBL document CHEMBL3044882

Test system: Culex quinquefasciatus
Test: Toxicity against third instar larve of Culex quinquefasciatus assessed as mortality at 100 ugcm'-3 after 24 hr
Type: functional
Active and inactive are the calls of the source. The rule behind the calls is not given here.
quantity-name: mortality

Examples with answers:
INSERT INTO assay_data (compound, tested_on, recorded_measurement) VALUES
  ('O=[N+]([O-])c1ccc(NN=C(/C=C/c2ccccc2)/C=C/c2ccccc2)c([N+](=O)[O-])c1', 'Culex quinquefasciatus', 'inactive'),
  ('O=C(/C=C/c1ccc(Cl)cc1)c1ccccc1O', 'Culex quinquefasciatus', '100%'),
  ('O=C(/C=C/c1ccco1)c1ccccc1O', 'Culex quinquefasciatus', '100%'),
  ('CC(/C=C/c1ccccc1)=N\Nc1ccc([N+](=O)[O-])cc1[N+](=O)[O-]', 'Culex quinquefasciatus', 'inactive'),
  ('O=[N+]([O-])c1ccc(N/N=C(/C=C/c2ccccc2)c2ccccc2)c([N+](=O)[O-])c1', 'Culex quinquefasciatus', 'inactive'),
  ('O=C(/C=C/c1ccccc1)c1ccccc1 [CHALCONE]', 'Culex quinquefasciatus', '100%'),
  ('O=C(/C=C/c1ccccc1)c1ccccc1O [2''-HYDROXYCHALCONE]', 'Culex quinquefasciatus', '100%');

Consider the additional compound presented here.
Q: For the compound shown here, O=C(/C=C/c1ccccc1O)c1ccccc1 , give the reported mortality.
Ans: 100%
